For each of the variants below, state its self-cleavage.
B1: CPEB3 Ribozyme (parent)
chain: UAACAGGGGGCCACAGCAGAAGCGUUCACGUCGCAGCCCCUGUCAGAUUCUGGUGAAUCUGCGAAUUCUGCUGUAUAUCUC

- Variants of: B1
- testDescription: self-cleavage, relative activity (ratio to wild type); higher = more cleavage; in vitro, sequencing
Give the figure by itself; no unit, no explanation.

input: For the variant shown here, C40G A56U , give the reported self-cleavage.
output: 0.42

input: // repeat for U48C U66A and report
output: 0.44

input: // repeat for G6A U69G and report
output: 0.27

input: // repeat for G9C A56G and report
output: 0.24

input: // repeat for A20U A28G and report
output: 0.22

input: // repeat for U25C A77G and report
output: 0.27

input: // repeat for G10A A57U and report
output: 0.05

input: // repeat for U41G A75G and report
output: 0.18

input: // repeat for C14A A75U and report
output: 1.23

input: // repeat for U76C U78A and report
output: 1.19

input: // repeat for G53A U60C and report
output: 0.69

Ref: the RNAGym collection of RNA variant scans (doi:10.1093/nar/gkz1192)
